- Tested on: RXRa homodimer (NR concentration 180 nM)
- PROTOCOL SUMMARY: PBM binding z-score (relative to random genomic background probes); higher = stronger binding; sequences stand for … in GC…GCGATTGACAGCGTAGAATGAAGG
MEASUREMENT TYPE: PBM binding z-score
Respond using a number only.

Solved cases (4 shown):
Find the recorded PBM binding z-score belonging to AGAATGAAGTTATTAAGATCAGGGAATTGCGGTC and report it.
0.116

Find the recorded PBM binding z-score belonging to ATCTCTAGGTAAAAGTTCAGAGAATCCCGAGGAT and report it.
1.87

Find the recorded PBM binding z-score belonging to ATATGTACGTTACATCCGGGTCATTCAGGCTATG and report it.
2.07

Find the recorded PBM binding z-score belonging to CCTTACGGGTCACCCCAGGTTATAGCATCGGAGT and report it.
5.34

---
Find the recorded PBM binding z-score belonging to ATACCAAGGTGTTCGTGAGGTCGTTGATACTAAC and report it.
0.997

Find the recorded PBM binding z-score belonging to CCGACTGGGGCCGAAAGGTTACCATACCATCCGG and report it.
2.15

* * *

- System: PPARg DBDmut IVT, anti-PPARg (DBD mutation: PPARg1 K132A/R137A, NR concentration 270 nM)
- PROTOCOL SUMMARY: PBM binding z-score (relative to random genomic background probes); higher = stronger binding; sequences stand for … in GC…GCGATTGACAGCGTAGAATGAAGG
# Lookup of reported PBM binding z-score keyed by entry

Solved cases (5 shown):
Find the recorded PBM binding z-score belonging to TCGAGTAGGTTACCAATGGGGTATTCAGCTTTCT and report it.
-0.0236

Find the recorded PBM binding z-score belonging to TCTTGTAAATCAGCAGGTTAAGAAAGCTGGCCAA and report it.
-0.222

Find the recorded PBM binding z-score belonging to CGTCAAAGTTCAAGGTAACGTTACAGAAAGCAGC and report it.
1.08

Find the recorded PBM binding z-score belonging to GCTAGCAGGCCAGTTGGGTCACTCAATGACGGGC and report it.
-2.01

Find the recorded PBM binding z-score belonging to TCTTGTAGATCAATAGAGGTTAAAAAAGTGCGCT and report it.
0.476

---
Find the recorded PBM binding z-score belonging to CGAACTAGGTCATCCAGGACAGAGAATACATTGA and report it.
1.68

Find the recorded PBM binding z-score belonging to ATCTCTAGGTAGAGTTCAGTGAAAGATCGATAGA and report it.
0.623

Find the recorded PBM binding z-score belonging to TTATCAAGGTGAAGGTCGTTGATCCCTCTGTAGA and report it.
0.341

Find the recorded PBM binding z-score belonging to CTTAGCAGGCCAGGGTCACTCAAGCATTTCGCTT and report it.
-0.865

Find the recorded PBM binding z-score belonging to GCTTGTAGGTCAAGGTTAAGAAAGACTAAGCTAA and report it.
1.01

Find the recorded PBM binding z-score belonging to TCTTTTAGTTGATTAGGGCAACCGAAACAGCGGA and report it.
2.73

Find the recorded PBM binding z-score belonging to CAATCTAGGTCACCGGAAGGTCAAAGTCCGCATG and report it.
1.39

* * *

- Tested on: RARb homodimer (NR concentration 270 nM)
- PROTOCOL SUMMARY: PBM binding z-score (relative to random genomic background probes); higher = stronger binding; sequences stand for … in GC…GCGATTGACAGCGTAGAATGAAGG
MEASUREMENT TYPE: PBM binding z-score

Find the recorded PBM binding z-score belonging to ATATGTAGGTTACATCCGGTTCATTCAGGCTATG and report it.
1

Find the recorded PBM binding z-score belonging to ATATGTAGGTTATCGGGTCACTCAGTTTGCGCAT and report it.
3.37

Find the recorded PBM binding z-score belonging to TCTGCTAGGTCAACAATGGTCAGCTAATCTGCTA and report it.
3.37

---
Find the recorded PBM binding z-score belonging to CCGAGTAGGTTATGGGGCATTAAGGCAACGGTGA and report it.
1.08

Find the recorded PBM binding z-score belonging to GCTATCAGGCCATTTGGGTCACTCAATGACGGGC and report it.
2.39

Find the recorded PBM binding z-score belonging to TGAATGAGGTTCAAGATCAGGGAACGTGGCGTCG and report it.
0.237
